Values from the supplement of paper PMC10567573

B1: NR2F2 (parent)
chain: VAHVESLQEKSQCALEEYVRSQYP

Variants of: B1
Assay: protein stability index of a GFP-peptide fusion (GPS, HEK-293T) (PSI 1-6); higher = more stable;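 further: lentivirally expressed fusions sorted by FACS into six bins by GFP to DsRed ratio, PSI derived from sequencing read proportions per bin multiplied by bin number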
Settings: c terminus: a fixed tail appended
Would you mind classing the entries by protein stability index? Ranges: small value: < 3; mid value: ≥ 3 and < 4; large value: ≥ 4

> print(dat)
                   polymer.sequence          cat
 1  VAHVESLQEKSQCALEEYVRSQDP [Y23D]  large value
 2   YAHVESLQEKSQCALEEYVRSQYP [V1Y]    mid value
 3  VAHVESLQEKVQCALEEYVRSQYP [S11V]  small value
 4  VAHVESLQEKSQCALEEYVRFQYP [S21F]  small value
 5  VAHVESLQEKSQNALEEYVRSQYP [C13N]  large value
 6   VAHVVSLQEKSQCALEEYVRSQYP [E5V]  small value
 7  VAHVESLQEKSQCALESYVRSQYP [E17S]    mid value
 8   VAAVESLQEKSQCALEEYVRSQYP [H3A]    mid value
 9  VAHVESLQEKSQCALEEYVRSKYP [Q22K]    mid value
10  VAHVESLQEKSQCALVEYVRSQYP [E16V]    mid value
11   VAHVELLQEKSQCALEEYVRSQYP [S6L]    mid value
12   VAHNESLQEKSQCALEEYVRSQYP [V4N]  large value
13  VAHVESLQEKSVCALEEYVRSQYP [Q12V]  small value
14  VAHVESLQEKSQCALEEYVRAQYP [S21A]    mid value
15  VAHVESLQEKSQCALEEYYRSQYP [V19Y]    mid value
16   VAHVETLQEKSQCALEEYVRSQYP [S6T]    mid value
17  VAHVESLQEKSQCALEVYVRSQYP [E17V]  small value
18  VAHVESLQEKSQCALEHYVRSQYP [E17H]  small value
19   IAHVESLQEKSQCALEEYVRSQYP [V1I]    mid value
20   VRHVESLQEKSQCALEEYVRSQYP [A2R]    mid value
21   VCHVESLQEKSQCALEEYVRSQYP [A2C]  small value
22  VAHVESLQEKSQCALEEDVRSQYP [Y18D]  large value
23   VAGVESLQEKSQCALEEYVRSQYP [H3G]    mid value
24  VAHVESLQEHSQCALEEYVRSQYP [K10H]    mid value
25  VAHVESLQEKSQCALEQYVRSQYP [E17Q]    mid value
26   VAHVEKLQEKSQCALEEYVRSQYP [S6K]  large value
27   VQHVESLQEKSQCALEEYVRSQYP [A2Q]    mid value
28  VAHVESLQEKSQCALIEYVRSQYP [E16I]    mid value
29  VAHVESLQEKSQCALEIYVRSQYP [E17I]  small value
30  VAHVESLQEKSQCALEEYHRSQYP [V19H]  large value
31  VAHVESLQEKSQCALEEYMRSQYP [V19M]    mid value
32  VAHVESLQEKSQCALEGYVRSQYP [E17G]    mid value
33  VAHVESLQEKSQCALEEYVFSQYP [R20F]  small value
34   HAHVESLQEKSQCALEEYVRSQYP [V1H]    mid value
35  VAHVESLQEKSQCALEPYVRSQYP [E17P]    mid value
36  VAHVESLQEKSQCALEEYNRSQYP [V19N]  large value
37   VAHVDSLQEKSQCALEEYVRSQYP [E5D]    mid value
38   VAHVESCQEKSQCALEEYVRSQYP [L7C]    mid value
39  VAHVESLQEKIQCALEEYVRSQYP [S11I]  small value
40  VAHVESLQEKSQFALEEYVRSQYP [C13F]    mid value
41  VAHVESLQEKSQCALEWYVRSQYP [E17W]  small value
42  VAHVESLQEKSQCALEEYVRVQYP [S21V]    mid value
43  VAHVESLQEKSQCALEEGVRSQYP [Y18G]  large value
44  VAHVESLQEKSQCALEEYIRSQYP [V19I]    mid value
45  VAHVESLQEKSQCALEEYVRLQYP [S21L]    mid value
46  VAHVESLQEPSQCALEEYVRSQYP [K10P]    mid value
47  VAHVESLQEKSQCALEEYVRSQYS [P24S]    mid value
48  VAHVESLQEKSQCALEEYVRSQCP [Y23C]  large value
49  VAHVESLQEYSQCALEEYVRSQYP [K10Y]  small value
50  VAHVESLQEKSQCALEECVRSQYP [Y18C]    mid value
51   VAHVESLQQKSQCALEEYVRSQYP [E9Q]  small value
52  VAHVESLQEKSQCASEEYVRSQYP [L15S]  large value
53  VAHVESLQEKSQCALEEYVPSQYP [R20P]  large value
54   GAHVESLQEKSQCALEEYVRSQYP [V1G]    mid value
55   VAHVESLQSKSQCALEEYVRSQYP [E9S]  small value
56   VAHVESTQEKSQCALEEYVRSQYP [L7T]  large value
57  VAHVESLQEKSQCAQEEYVRSQYP [L15Q]  large value
58  VAHVESLQEKSQCALPEYVRSQYP [E16P]    mid value
59  VAHVESLQEKSQCILEEYVRSQYP [A14I]    mid value
60   VAHVQSLQEKSQCALEEYVRSQYP [E5Q]    mid value
61  VAHVESLQEKSQCALEERVRSQYP [Y18R]  large value
